Assay: Sensory evaluation on the backside of the hand (spreading, fatty/greasy skin feel, absorption), untrained panellists
Conditions: blend with Castor Oil; scale 1 to 5
reported-metric: Absorption/remaining residue with alkanediol

In [3]: df
Out[3]:
                            compound  measurement
0   CCCCC(O)C(C)O (stereo not shown)          3.8
1    CCCCCCC(O)CO (stereo not shown)          3.4
2     CCCCCC(O)CO (stereo not shown)            4
3  CCCCCC(O)C(C)O (stereo not shown)            3

* * *

Assay: Sensory evaluation on the backside of the hand (spreading, fatty/greasy skin feel, absorption), untrained panellists
Settings: blend with Cacao butter; scale 1 to 5
reported-metric: Absorption/remaining residue with alkanediol

In [3]: df
Out[3]:
                            compound  measurement
0  CCCCCC(O)C(C)O (stereo not shown)          2.8
1   CCCCC(O)C(C)O (stereo not shown)          3.2
2     CCCCCC(O)CO (stereo not shown)          3.6
3    CCCCCCC(O)CO (stereo not shown)            3
